subjectOfTest: Dihydrofolate reductase (Lactobacillus casei, UniProt P00381)
Sequence (P00381 whole entry): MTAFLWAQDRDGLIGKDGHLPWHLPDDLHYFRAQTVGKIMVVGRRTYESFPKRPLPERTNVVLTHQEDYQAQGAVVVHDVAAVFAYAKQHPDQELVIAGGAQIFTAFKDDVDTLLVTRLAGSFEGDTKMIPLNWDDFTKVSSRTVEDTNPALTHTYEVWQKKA
assayOverview: Inhibitory activity against Dihydrofolate reductase from Lactobacillus casei ( lcDHFR)
Set-up: species or system Lacticaseibacillus casei
observable: IC50 (nM)
Give a bare numeral; the unit nM is implied.

smi	IC50 (nM)
COc1ccc(OC)c(CN(C)c2ccc3nc(N)nc(N)c3c2)c1	130

Query string: Find the measured IC50: item COc1cc(CN(C)c2ccc3nc(N)nc(N)c3c2)cc(OC)c1 , target or system Dihydrofolate reductase (Lactobacillus casei, UniProt P00381).
Result string: 37

* * *

subjectOfTest: Dihydrofolate reductase (Lactobacillus casei, UniProt P00381)
IC50 strictly less than 2000 nM = Yes. Otherwise No.

Here's what some known entries look like.
compound	qualitativeLabel
Nc1nc(N)c2cc(NCc3ccccc3)ccc2n1	No
COc1cc(CNc2ccc3nc(N)nc(N)c3c2)cc(OC)c1	No
COc1ccc(CN(C)c2ccc3nc(N)nc(N)c3c2)c(OC)c1OC	Yes

Query string: I'd appreciate it if you could check whether COc1cc(OC)c(OC)cc1CNc1ccc2nc(N)nc(N)c2c1 has IC50 smaller than 2000 nM.
Result string: Yes

Query string: Param item: COc1cc(OC)c(CNc2ccc3nc(N)nc(N)c3c2)c(OC)c1
Result string: No

Query string: Would you kindly repeat that for COc1ccc(OC)c(CNc2ccc3nc(N)nc(N)c3c2)c1 ?
Result string: No

Query string: Quick one: COc1cc(NCc2ccc3nc(N)nc(N)c3c2C)cc(OC)c1OC [TRIMETREXATE]
Result string: Yes

Query string: Try this compound next: COc1cc(CNc2ccc3nc(N)nc(N)c3c2)cc(OC)c1OC
Result string: No

Query string: Request: COc1ccc(CN(C)c2ccc3nc(N)nc(N)c3c2)c(OC)c1
Result string: Yes

Query string: CN(Cc1cccc2c1CCCC2)c1ccc2nc(N)nc(N)c2c1 , same question.
Result string: Yes

Query string: COc1ccc(CNc2ccc3nc(N)nc(N)c3c2)c(OC)c1 ?
Result string: No

* * *

assayOverview: Partition coefficient (logP)
Type: physicochemical
conditionDescription: octanol/water
observable: logP
// return just the number, without any unit appended

Use these answered entries as a reference point.
smi	logP
COc1cc(CNc2cnc3nc(N)nc(N)c3c2)cc(OC)c1OC	0.89
COc1cc(CN(C)c2cnc3nc(N)nc(N)c3c2)cc(OC)c1	1.87
COc1ccc(OC)c(CNc2cnc3nc(N)nc(N)c3c2)c1	1.32

Query string: Tell me the measured logP of COc1ccc(OC)c(CN(C)c2cnc3nc(N)nc(N)c3c2)c1 , please.
Result string: 1.87

* * *

# pIC50 measurements, system: Dihydrofolate reductase (Homo sapiens, UniProt P00374)
# Sequence (P00374 whole entry): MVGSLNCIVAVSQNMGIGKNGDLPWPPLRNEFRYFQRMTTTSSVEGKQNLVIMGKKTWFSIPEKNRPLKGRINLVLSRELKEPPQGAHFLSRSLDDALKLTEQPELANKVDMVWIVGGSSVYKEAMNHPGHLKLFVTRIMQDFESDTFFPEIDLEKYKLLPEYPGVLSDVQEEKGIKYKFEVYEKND
Please report pIC50 as the negative decimal logarithm of the molar concentration, giving only the number.

smi	pIC50
COc1cc(CN(C)c2ccc3nc(N)nc(N)c3c2)cc(OC)c1	7.96
CN(Cc1cccc2c1CCCC2)c1ccc2nc(N)nc(N)c2c1	7.57
COc1ccc(OC)c(CNc2ccc3nc(N)nc(N)c3c2)c1	4.55

Query string: Entry under review: COc1ccc(CN(C)c2ccc3nc(N)nc(N)c3c2)c(OC)c1 . Reported pIC50?
Result string: 7.30

* * *

subjectOfTest: Bifunctional dihydrofolate reductase-thymidylate synthase (Toxoplasma gondii, UniProt Q07422)
Sequence (Q07422 whole entry): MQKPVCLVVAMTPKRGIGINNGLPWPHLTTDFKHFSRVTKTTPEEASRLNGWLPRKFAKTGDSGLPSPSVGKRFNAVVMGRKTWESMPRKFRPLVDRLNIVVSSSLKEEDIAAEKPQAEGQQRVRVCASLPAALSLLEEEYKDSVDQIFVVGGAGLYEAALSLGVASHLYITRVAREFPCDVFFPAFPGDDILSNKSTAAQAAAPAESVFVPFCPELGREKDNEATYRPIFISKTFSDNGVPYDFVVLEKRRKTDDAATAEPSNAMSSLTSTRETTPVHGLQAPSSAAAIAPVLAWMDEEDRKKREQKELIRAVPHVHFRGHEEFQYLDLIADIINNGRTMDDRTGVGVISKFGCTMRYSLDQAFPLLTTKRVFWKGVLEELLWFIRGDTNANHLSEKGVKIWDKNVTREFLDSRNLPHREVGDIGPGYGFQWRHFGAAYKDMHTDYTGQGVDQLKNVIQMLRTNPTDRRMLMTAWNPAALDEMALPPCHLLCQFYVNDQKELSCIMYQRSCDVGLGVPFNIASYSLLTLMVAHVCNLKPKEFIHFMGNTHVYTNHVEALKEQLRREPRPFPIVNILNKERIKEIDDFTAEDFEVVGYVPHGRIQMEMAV
assayOverview: Inhibitory activity against recombinant Dihydrofolate reductase from Toxoplasma gondii (tgDHFR)
observable: pIC50
Lab note: report pIC50 as minus log10 of the concentration in molar units, number only.

Query string: So what does the record say about pIC50 for Nc1nc(N)c2cc(NCc3ccccc3)ccc2n1 ?
Result string: 5.85
